// data source = patent US8541460B2

Tested on: SR
experiment_notes: NCI DTP cell line screen (SRB), Leukemia
Format: cell-based
condition_notes: read-out: LC50 (the source's name)
quantity_measured: CC50

Query block: API: value(readout=CC50, system=SR) for record N=C(N)Nc1ccc(-n2nc(C(F)(F)F)cc2-c2ccc3c(ccc4ccccc43)c2)cc1 [Compound 71]
Result block: > 100 µM

###

Tested on: NCI-H23
experiment_notes: NCI DTP cell line screen (SRB), Non-Small Cell Lung Cancer
Format: cell-based
condition_notes: read-out: LC50 (the source's name)
quantity_measured: CC50 (µM)
Answer with a number only, understood to be in µM.

Query block: Find the recorded CC50 belonging to N=C(N)Nc1ccc(-n2nc(C(F)(F)F)cc2-c2ccc3c(ccc4ccccc43)c2)cc1 and report it.
Result block: 5.64
